- Test system: CEM-SS cells
- assay comment: Cytotoxicity assay (growth inhibition, Coulter counter)
- condition summary: read-out: Cytotoxicity IC50; WT (CEM-SS) cells (Table 5)
result type: pIC50
Just the number, please; pIC50 means minus log10 of the concentration in mol/L.

>  <compound>
Nc1ncnc2c1ncn2CCOCP(=O)(O)O [PMEA, 9-(2phosphonylmethoxyethyl)adenine]

>  <data value>
4.10

$$$$

We now examine a further compound.
Lab book: pIC50 of Nc1nc2c(ncn2CCOCP(=O)(O)O)c(=O)[nH]1 [PMEG, 9-(2-phosphonylmethoxyethyl)guanine] noted as 5.30

====

- assay comment: Cytotoxicity assay (growth inhibition, Coulter counter)
- condition summary: human
- Method: Selection for PMEA resistance was carried out by exposing CEM-SS cells in culture to increasing concentrations of PMEA, over several months. The IC50 values were obtained after 2 days of culture. […] All assays were performed in 24-well tissue culture plates (Costar, Cambridge, Ma.). […] At the end of the incubation, the cell concentrations, sizes, and volumes were counted in a Coulter counter (Coulter Electronics, Hialeah. Fla.).
result type: IC50 at 48 h (mM)
Express the result in mM but write the number alone.

>  <given smiles>
Nc1ccn([C@@H]2CS[C@H](CO)O2)c(=O)n1

>  <u>
mM

>  <IC50 at 48 h>
5

$$$$

The record that follows has no IC50 at 48 h shown yet.
Record Cc1cn([C@H]2C[C@H](N=[N+]=[N-])[C@@H](CO)O2)c(=O)[nH]c1=O . Reported IC50 at 48 h: 3

====

- assay comment: Efflux of [3H]-AZT and its metabolites
- Type: in vitro ADME, human
- condition summary: human, CEMss, Azide + Deoxyglucose; read-out: Efflux kinetics, AZTMP t½
result type: half-life at 10 μM (min)
# output: bare number, implied unit min

Note to self: half-life at 10 μM recorded for Cc1cn([C@H]2C[C@H](N=[N+]=[N-])[C@@H](COP(=O)(O)O)O2)c(=O)[nH]c1=O [AZTMP, azido-thymidine monophosphate] was 16.3
